Taken from ChEMBL document CHEMBL5604063.

Known pIC50 of a selection of compounds
target: Genome polyprotein (dengue virus type 2, UniProt P29990); type: functional, Thailand/16681/1984
Sequence (P29990 1346-1475 limits assumed): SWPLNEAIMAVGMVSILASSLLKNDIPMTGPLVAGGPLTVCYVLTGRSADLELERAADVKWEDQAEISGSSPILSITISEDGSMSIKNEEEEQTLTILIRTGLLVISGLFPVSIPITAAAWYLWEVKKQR
Sequence (P29990 1476-2093 limits assumed): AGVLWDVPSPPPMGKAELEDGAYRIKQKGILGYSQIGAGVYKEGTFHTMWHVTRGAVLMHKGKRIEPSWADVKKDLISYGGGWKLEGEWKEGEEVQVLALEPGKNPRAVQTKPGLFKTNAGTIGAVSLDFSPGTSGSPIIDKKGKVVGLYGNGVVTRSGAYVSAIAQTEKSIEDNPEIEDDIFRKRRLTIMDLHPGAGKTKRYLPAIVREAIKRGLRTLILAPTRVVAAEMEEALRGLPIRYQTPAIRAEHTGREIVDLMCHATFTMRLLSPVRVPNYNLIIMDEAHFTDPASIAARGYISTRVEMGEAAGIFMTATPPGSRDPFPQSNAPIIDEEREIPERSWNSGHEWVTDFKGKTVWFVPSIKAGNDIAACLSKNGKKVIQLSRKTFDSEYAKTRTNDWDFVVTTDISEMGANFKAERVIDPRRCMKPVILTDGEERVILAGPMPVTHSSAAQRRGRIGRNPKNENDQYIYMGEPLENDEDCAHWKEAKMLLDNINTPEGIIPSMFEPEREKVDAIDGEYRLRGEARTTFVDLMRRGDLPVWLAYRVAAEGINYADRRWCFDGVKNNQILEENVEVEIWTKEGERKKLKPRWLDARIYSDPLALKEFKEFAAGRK
pIC50: −log10 of the molar value.

| smiles | pIC50 |
| --- | --- |
| N#Cc1cc(Cl)cc([C@H](C#N)Nc2ccc3c(c2)CNC3)c1 | < 4.00 |
| O=C1NCc2ccc(NC(=O)c3cc(Cl)cc4[nH]ncc34)cc21 | < 4.00 |
| NCc1cccc(NC(=O)[C@@H](NC(=O)OCc2ccccc2)c2cccc(-c3ccc(N)nc3)c2)c1 | < 4.00 |
| NCc1cccc(NC(=O)[C@@H](NC(=O)OCc2ccccc2)C2CCN(C(=O)C3CC3)CC2)c1 | < 4.00 |
| O=C(Nc1ccc2c(c1)CNC2)c1cc(Cl)cc2[nH]c(-c3cn[nH]c3)cc12 | < 4.00 |
| O=C(Nc1cc(Cl)cc([C@H]2CN(Cc3ccccc3)C[C@@H]2c2cccc(-c3nn[nH]n3)c2)c1)OCc1ccccc1 | 5.21 |
| Cc1ccc(C)n1-c1ccc(Cl)cc1C(=O)Nc1ccc2c(c1)CNC2 | < 4.00 |
| NCc1ccc(Oc2ccc(S(=O)(=O)Nc3ccc(Cl)cc3C(=O)O)cc2)cc1 | < 4.00 |
| N[C@H]1CCc2ccc(NC(=O)c3cc(Cl)cc(NC(=O)OCc4ccccc4)c3)cc21 | 4.04 |

* * *

target: Genome polyprotein (dengue virus type 2, UniProt P29990); assay type: functional, Thailand/16681/1984
measured.endpoint: IC50

| smiles | measured.endpoint | result |
| --- | --- | --- |
| O=C(Nc1ccc2c(c1)CNC2)c1ccc(F)c2[nH]ncc12 | IC50 | 69.7 µM |
| NCC1(c2ccc(C(=O)N3CCc4scc(Br)c4C3)cc2)CC1 | IC50 | > 99.5 µM |
| Cn1cc(-c2ccc([C@@H](NC(=O)OCc3ccccc3)C(=O)Nc3cccc(CN)c3)cc2)cn1 | IC50 | > 99.5 µM |
| c1cnc2c(c1)CC[C@@H]2NCc1n[nH]c2ccccc12 | IC50 | > 99.5 µM |
| NC(=O)c1cccnc1N1CCCN(c2nc(-c3cc(Cl)cc(Cl)c3)no2)CC1 | IC50 | > 99.5 µM |
| Cc1cnn(-c2cc(C(=O)O)c(NS(=O)(=O)c3ccc(Oc4ccccc4Cl)cc3)cc2F)c1 | IC50 | 6.2 µM |
| CC(=Cc1cc(Cl)cc(NC(=O)OCc2ccccc2)c1)c1cccc(CN)c1 | IC50 | 23.4 µM |
| CC(C)[C@H](NC(=O)c1cc(Cl)cc(NC(=O)OCc2ccccc2)c1)C(=O)O | IC50 | > 99.5 µM |
| COC(=O)Cc1ccccc1-c1ccc(S(=O)(=O)Nc2ccc(Cl)cc2C(=O)O)cc1 | IC50 | 35.5 µM |
| CC(C)(C)OC(=O)Cn1ccnc(N2CC[C@@H](CO)C2)c1=O | IC50 | > 99.5 µM |
| NCc1cccc(NC(=O)c2cc(NC(=O)OCc3ccccc3)cc(Cl)c2Cl)c1 | IC50 | 87.3 µM |
| CCn1c(=O)c(N2CC[C@@H](Cc3ccncc3)C2)nc2ccccc21 | IC50 | > 99.5 µM |
| O=C(NCC(F)F)[C@H](Nc1ccc2c(c1)CNC2)c1cc(Cl)cc(C2CC2)c1 | IC50 | > 99.5 µM |
| Cc1nnc(SC[C@H]2CCCN2C(=O)Nc2ccc3c(c2)CNC3)s1 | IC50 | > 99.5 µM |
| Cc1c(C(=O)Nc2cc(-c3cccnc3)ccn2)cc(C2CCC2)n1C | IC50 | > 99.5 µM |
| O=c1[nH]c2cccc(N3CCN(Cc4c[nH]c5ccccc45)CC3)c2[nH]1 | IC50 | > 99.5 µM |
| O=C(NCC(F)F)[C@H](Nc1ccc2c(c1)CNC2)c1cccc(Cl)c1 | IC50 | > 99.5 µM |
| NC(=O)c1cccc(NC(=O)c2cc(Cl)cc(NC(=O)OCc3ccccc3)c2)c1 | IC50 | > 99.5 µM |
| O=C1Cc2cc(NC(=O)c3cc(Cl)cc(NC(=O)OCc4ccccc4)c3)ccc2N1 | IC50 | > 99.5 µM |
| OC[C@H](Cc1cccnc1)NCc1c[nH]c2ccccc12 | IC50 | > 99.5 µM |
| O=C(Nc1ccc2c(c1)CNC2)c1cc(Br)cc2[nH]c([C@H]3CCOC3)nc12 | IC50 | 98.5 µM |

* * *

target: Genome polyprotein (dengue virus type 2); type: functional, Thailand/16681/1984
pIC50: −log10 of the molar value.
Known pIC50 of a selection of compounds
measured.endpoint: pIC50

| smiles | measured.endpoint | result |
| --- | --- | --- |
| NCc1cccc(NC(=O)C2(CNC(=O)OCc3ccccc3)CCCC2)c1 | pIC50 | < 4.00 |
| O=C1Cc2c(cccc2C(=O)NC2(c3ccc(O)nc3)CC2)N1 | pIC50 | < 4.00 |
| O=C(Nc1cc(-c2cccnc2)ccn1)c1cc2n(n1)CCS2(=O)=O | pIC50 | < 4.00 |
| C=C(C)c1ccc(Cl)cc1[C@H](Nc1ccc2c(c1)CNC2)C(=O)NCC(F)F | pIC50 | < 4.00 |
| C=CC[C@H]1NCc2cc(N[C@H](C(=O)NCC(F)F)c3cc(Cl)cc(C4CC4)c3)ccc21 | pIC50 | < 4.00 |
| Cc1c(NC(=O)OCc2ccccc2)cc(C(F)(F)F)cc1C(=O)Nc1cccc(CN)c1 | pIC50 | 4.29 |
| CCn1ccnc(N2CC[C@@H](CC(N)=O)C2)c1=O | pIC50 | < 4.00 |
| O=C(Nc1cc(Cl)cc(C(=O)NC[C@@]23CC[C@H](CNC2)C3)c1)OCc1ccccc1 | pIC50 | < 4.00 |
| CCCC(=O)Nc1cc(Cl)cc(C(=O)Nc2cccc(CN)c2)c1 | pIC50 | < 4.00 |
| NCc1ccccc1C(=O)Nc1ccc2c(c1)C(=O)OC2 | pIC50 | < 4.00 |
| CCn1ncc2c(C(=O)Nc3ccc4c(c3)CNC4)cc(C)nc21 | pIC50 | < 4.00 |
| O=C(Nc1cc(Cl)cc(C(=O)Nc2nccc([C@H]3CCCCN3)n2)c1)OCc1ccccc1 | pIC50 | < 4.00 |
| OC[C@H]1CCN(c2cnc3ccccc3n2)C1 | pIC50 | < 4.00 |
| O=C(Nc1ccc2c(c1)CNCCC2)c1cc(Cl)cc2[nH]ncc12 | pIC50 | 4.37 |
| COC(=O)c1cc(C(=O)Nc2ccc3c(c2)CNC3)cc2[nH]ccc12 | pIC50 | < 4.00 |
| NCc1cccc(NC(=O)[C@@H](NC(=O)OCc2ccccc2)C2CCN(Cc3ccncc3)CC2)c1 | pIC50 | < 4.00 |
| O=C1Cc2c(cccc2C(=O)Nc2nnc3n2CCCS3)N1 | pIC50 | < 4.00 |
| O=C(N[C@@H](C(=O)NC1CNC1)c1ccc(OCc2ccccc2)cc1)OCc1ccccc1 | pIC50 | < 4.00 |
| Cn1nc2c(c1NC(=O)c1cc(Cl)cc(NC(=O)OCc3ccccc3)c1)CCNC2 | pIC50 | < 4.00 |
| O=c1c2cccn2cnn1Cc1cnc(Cl)s1 | pIC50 | < 4.00 |
| Cn1ccnc1S(=O)(=O)N[C@@H](C(=O)Nc1cccc(CN)c1)c1ccc(OCc2ccccc2)cc1 | pIC50 | < 4.00 |
| NCc1cccc(NC(=O)c2cc(Br)cc3[nH]ccc23)c1 | pIC50 | < 4.00 |
| Cc1csc(N2CCN(Cc3c[nH]c4ccccc34)CC2)n1 | pIC50 | < 4.00 |
| CN(C)[C@H]1CCc2cc(-c3cccc(N4CCNC4=O)c3)ccc2NC1 | pIC50 | < 4.00 |
| CCC1(NC(=O)Cn2ccnc(N3CC[C@@H](CO)C3)c2=O)CC1 | pIC50 | < 4.00 |
| O=C(O)COc1cc2c(cc1Cc1c[nH]c3ccc(Cl)cc13)OCO2 | pIC50 | < 4.00 |
| NCc1cccc(NC(=O)[C@@H]2Cc3ccc(OCc4ccccc4)cc3CN2C(=O)OCc2ccccc2)c1 | pIC50 | 4.06 |
| CO[C@]1(C)C(=O)Nc2cc(F)cc(C(=O)Nc3ccc4c(c3)CNC4)c21 | pIC50 | < 4.00 |
| O=C(O)c1cc(Cl)ccc1NS(=O)(=O)c1ccc(-c2ccncc2)cc1 | pIC50 | < 4.00 |
| NCc1cccc(NC(=O)[C@H]2CCc3nnc(C4CC4)n3C2)c1 | pIC50 | < 4.00 |
| CNC(=O)[C@H](Nc1cc(Cl)cc(NC(=O)OCc2ccccc2)c1)c1ccc(-c2nn[nH]n2)cc1 | pIC50 | 4.34 |
| CNC(=O)[C@H](Nc1cccc(C2(C(=O)O)CCC2)c1)c1cc(Cl)cc(C2CC2)c1 | pIC50 | < 4.00 |
| CN1Cc2cc(NC(=O)c3cc(Cl)cc4[nH]ncc34)ccc2C1(C)C | pIC50 | < 4.00 |
| NCc1cccc(NC(=O)C[C@H](NC(=O)OCc2ccccc2)c2ccc(Br)cc2)c1 | pIC50 | 4.29 |
| Clc1cc(CNc2ccc3c(n2)CNC3)c2cn[nH]c2c1 | pIC50 | < 4.00 |
| CC1=CC[C@H](c2cccc(-c3nn[nH]n3)c2)Nc2cc(Cl)ccc21 | pIC50 | 4.16 |
| N#Cc1cccc(N2CCN(Cc3c[nH]c4ccccc34)CC2)c1 | pIC50 | < 4.00 |
| CCCCCNC(=O)c1cc(Cl)ccc1NS(=O)(=O)c1ccc(Oc2ccccc2Cl)cc1 | pIC50 | < 4.00 |
| COc1ccc2c(c1)c(C(=O)Nc1cccc(CN)c1)c(C)n2C1CCCC1 | pIC50 | < 4.00 |
| C[C@]1(C(=O)N[C@H](C(=O)Nc2cccc(CN)c2)c2ccc(OCc3ccccc3)cc2)CCCO1 | pIC50 | < 4.00 |
| CCc1cc(COc2ccc(S(=O)(=O)Nc3ccc(Cl)cc3C(=O)O)cc2)no1 | pIC50 | 4.34 |
| O=C(Nc1ccc2c(c1)C(=O)OC2)c1ccc2c(c1)CNC2 | pIC50 | < 4.00 |
